Reference for the values: the supplement of paper PMC7877785

- ASSAY_COMMENT: self-splicing fitness, log relative to wild type (ln ratio); higher = more splicing; Tetrahymena group I intron in knt gene, E. coli kanamycin selection, DiMSum; sequences stand for … in CUCUCU…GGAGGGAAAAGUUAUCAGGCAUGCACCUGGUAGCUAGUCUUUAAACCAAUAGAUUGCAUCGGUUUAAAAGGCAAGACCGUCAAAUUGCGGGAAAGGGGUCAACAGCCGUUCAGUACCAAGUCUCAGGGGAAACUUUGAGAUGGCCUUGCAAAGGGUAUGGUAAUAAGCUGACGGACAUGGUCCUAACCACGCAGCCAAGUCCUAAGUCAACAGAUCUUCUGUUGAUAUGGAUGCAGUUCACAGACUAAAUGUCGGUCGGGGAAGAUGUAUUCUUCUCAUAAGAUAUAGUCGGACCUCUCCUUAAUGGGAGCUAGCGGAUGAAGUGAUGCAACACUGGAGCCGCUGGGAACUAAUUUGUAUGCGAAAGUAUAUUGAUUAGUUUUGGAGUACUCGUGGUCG;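 note: selection with 25 µg/mL kanamycin versus none on LB agar overnight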
- ASSAY_SETUP: 30 °C
Form field: self-splicing fitness (ln) (one value per entry).

{"columns": ["SEQ", "self-splicing fitness (ln)"],
 "data": [
  ["CCUCAGCAAUAUUACGUCCG", -1.86],
  ["UCCCAGCAAUAUUACGGUAG", -2.7],
  ["ACCCAGCAAUAUUACGAGUU", -1.14],
  ["UGGCAGCAAUAUUACGUAUU", -2.73],
  ["CAGGAGCAAUAUUACGACUU", -1.48],
  ["UAGUAGCAAUAUUACGAAAU", -2.89],
  ["CGAAAGCAAUAUUACGGUUG", -0.623],
  ["UAGAAGCAAUAUUACGGAGG", -3.39],
  ["CGGCAGCAAUAUUACGCCCG", -2.32],
  ["UUCGAGCAAUAUUACGCUGU", -3.54],
  ["CUGCAGCAAUAUUACGACUU", -2.66],
  ["GCUCAGCAAUAUUACGCGCA", -1.77],
  ["UAAUAGCAAUAUUACGCUUA", -1.32],
  ["CCACAGCAAUAUUACGGUAG", -0.799]
]}
